Test system: Drosophila melanogaster larvae
test method notes: Learning experiment E (scent/fructose reward) with Drosophila melanogaster larvae raised on feed mash containing the compound
Type: in vivo
particulars: larvae; 7.1×10^−7 M (700 nM) final concentration in feed mash, 5 days
measured endpoint: learning and memory capability P vs control K (Example 2)

structure smiles string | result
CCCCCCCCCCCCOC(=O)/C=C/c1ccc(O)c(OC)c1 | slight increase
CCCCCCCCCCCCCCCCCCCCOC(=O)/C=C/c1ccc(O)cc1 | slight increase
